system: Staphylococcus equorum; test: Antibacterial activity against Staphylococcus equorum assessed as zone of inhibition at 5 uL and 32 degC after 36 hrs at by disk diffusion method; type: functional
Activity calls are given as the source filed them. No cut-off for these calls is given here.
Endpoint: diameter of the inhibition zone (DIZ)

Answered examples (5):
{"columns": ["Compound", "diameter of the inhibition zone (DIZ)"],
 "data": [
  ["CC(C)CCC[C@@H](C)[C@H]1CC[C@H]2C(C#CCCN3C(=O)C=CC3=O)=CCC[C@]12C", "11 mm"],
  ["CC(C)CCC[C@@H](C)[C@H]1CC[C@H]2C3=CCn4c(=O)ccc(=O)n4[C@@H]3CC[C@]12C", "inactive"],
  ["CN(C)[C@@H]1C(O)=C(C(N)=O)C(=O)[C@@]2(O)C(O)=C3C(=O)c4c(O)cccc4[C@@](C)(O)[C@H]3C[C@@H]12", "30 mm"],
  ["C=CC1=CCC[C@]2(C)[C@@H]([C@H](C)CCCC(C)C)CC[C@@H]12", "10 mm"],
  ["CC(C)CCC[C@@H](C)[C@H]1CC[C@H]2C(/C=C/CN3C(=O)C=CC3=O)=CCC[C@]12C", "11 mm"]
]}

Request: What value of diameter of the inhibition zone (DIZ) has been reported for the following compound? `CCCN1C(=O)[C@H]2[C@H](CC=C3[C@H]2CC[C@]2(C)[C@@H]([C@H](C)CCCC(C)C)CC[C@@H]32)C1=O`
Response: inactive
